Assay: Cell Titer-fluor cell activity assay in HCV-1b replicon cells (CC50)
Type: cell-based
CC50 at 3 days for assorted molecules

Consider the following illustrative entries.
>>> observed_result("COC(=O)N[C@H](C(=O)N1CC2(C[C@H]1c1ncc(-c3ccc(-c4ccc5cc(-c6cnc(C7CCCC[C@H]7C(=O)N(NC(=O)OC)C(C)C)[nH]6)ccc5c4)cc3)[nH]1)OCCO2)C(C)C (stereo partly shown)")
"> 10 nM"
>>> observed_result("COC(=O)N[C@H](C(=O)N1CCC[C@H]1c1[nH]c(-c2ccc(-c3ccc(-c4cnc(C5C6CCC(C6)[C@@H]5C(=O)N(NC(=O)OC)C(C)C)[nH]4)cc3)cc2)c2c1CCC2)C(C)C (stereo partly shown)")
"> 100 nM"
>>> observed_result("COC(=O)N[C@H](C(=O)N1CCC[C@H]1c1ncc(-c2ccc(-c3ccc(-c4cnc([C@H]5C6CCC(C6)[C@@H]5C(=O)NCc5cnccn5)[nH]4)cc3)cc2)[nH]1)C(C)C (stereo partly shown)")
"> 1 nM"
>>> observed_result("COC(=O)N[C@H](C(=O)N1CCC[C@H]1c1ncc(-c2ccc(-c3ccc(-c4cnc(C5C6CCC(C6)[C@H]5C(=O)NCc5cnccn5)[nH]4)cc3)cc2)[nH]1)[C@@H](C)OC (stereo partly shown)")
"> 1 nM"
>>> observed_result("COC(=O)N[C@H](C(=O)N1CCC[C@H]1c1ncc(-c2ccc(-c3ccc(-c4cnc(C5[C@H]6CC[C@H](C6)[C@H]5C(=O)NCc5cnccn5)[nH]4)cc3)cc2)[nH]1)C(C)C (stereo partly shown) [AA_206_ENDOA2]")
"> 1 nM"

Item COC(=O)NC(C(=O)N1CCC[C@H]1c1ncc(-c2ccc(-c3ccc(-c4cnc(C5CCCC[C@@H]5C(=O)N(NC(=O)OC)C(C)C)[nH]4)cc3)cc2)[nH]1)C1CCOCC1 (stereo partly shown) : provide CC50 at 3 days
> 100 nM

Please look at this molecule and report its CC50 at 3 days: COC(=O)N[C@H](C(=O)N1CCC[C@H]1c1ncc(-c2ccc(-c3ccc(-c4cnc([C@@H]5C6CCC(C6)[C@H]5C(=O)NCc5cccs5)[nH]4)cc3)cc2)[nH]1)C(C)C (stereo partly shown)
> 1 nM

Tell me CC50 at 3 days reported for COC(=O)N[C@H](C(=O)NC1(c2ncc(-c3ccc(-c4ccc(-c5ccc([C@@H]6CCCN6C(=O)[C@@H](NC(=O)OC)[C@@H](C)OC)[nH]5)cc4)cc3)[nH]2)CC1)[C@@H](C)OC
> 1 nM

Return the recorded CC50 at 3 days value; entry: COC(=O)N[C@H](C(=O)N1CCC[C@H]1c1ncc(-c2ccc(-c3ccc(-c4cnc(C5C6CCC(C6)[C@H]5C(=O)Nc5ccccc5)[nH]4)cc3)cc2)[nH]1)[C@@H](C)OC (stereo partly shown)
> 1 nM

Fill in reported CC50 at 3 days for this entry: COC(=O)N[C@H](C(=O)N1CCC[C@H]1c1ncc(-c2ccc(-c3ccc(-c4cnc([C@@H]5CCCC[C@H]5C(=O)N(NC(=O)OC)C(C)C)[nH]4)cc3)cc2)[nH]1)C(C)C
> 10 nM

###

Assay: Cell Titer-fluor cell activity assay in HCV-1b replicon cells (CC50)
Assay type: cell-based
Metric Name: CC50 at 3 days

Some solved entries appear below for comparison.
>>> observed_result("COC(=O)N[C@H](C(=O)N1CCC[C@H]1c1ncc(-c2ccc(-c3ccc(-c4cnc([C@H]5C6CCC(C6)[C@@H]5C(=O)NCc5ccco5)[nH]4)cc3)cc2)[nH]1)C(C)C (some centres unmarked) [AA_198_A]")
"> 1 nM"
>>> observed_result("COC(=O)NC(C(=O)N1CCCC1c1[nH]c(-c2ccc(-c3ccc(-c4cnc([C@@H]5CCCN5C(=O)[C@@H](NC(=O)OC)C(C)C)[nH]4)cc3)cc2)c2c1CCCC2)C1CCOCC1 (some centres unmarked) [AG_040]")
"> 10 nM"
>>> observed_result("COC(=O)N[C@H](C(=O)N1CCC[C@H]1c1ncc(-c2ccc(-c3ccc(-c4cnc(C5C6CCC(C6)[C@@H]5C(=O)NC(C)c5cccnc5)[nH]4)cc3)cc2)[nH]1)[C@@H](C)OC (some centres unmarked) [AA_251_C]")
"> 1 nM"
>>> observed_result("COC[C@H](NC(=O)OC)C(=O)N1CCC[C@H]1c1ncc(-c2ccc(-c3ccc(-c4[nH]c([C@@H]5CCCN5C(=O)[C@@H](NC(=O)OC)C(C)C)c5c4CCC5)cc3)cc2)[nH]1 [AG_091]")
"> 1 nM"
>>> observed_result("COC(=O)N[C@H](C(=O)N1CCC[C@H]1c1cnc(-c2ccc(-c3ccc(-c4ncc(C5C6CCC(C6)[C@H]5C(=O)N(NC(=O)OC)C(C)C)[nH]4)cc3)cc2OC)[nH]1)C(C)C (some centres unmarked) [AA_166_A]")
"> 5 nM"
>>> observed_result("COC(=O)NC(C(=O)N1CCC[C@H]1c1ncc(-c2ccc3cc(-c4ccc(-c5[nH]c(C6CCCN6C(=O)[C@@H](NC(=O)OC)C(C)C)c6c5CCC6)cc4)ccc3c2)[nH]1)C1CCOCC1 (some centres unmarked) [AG_051]")
"> 100 nM"
>>> observed_result("COC[C@H](NC(=O)OC)C(=O)N1CCC[C@H]1c1ncc(-c2ccc(-c3ccc(-c4[nH]c([C@@H]5CCCN5C(=O)[C@@H](NC(=O)OC)C(C)OC)c5c4COC5)cc3)cc2)[nH]1 (some centres unmarked) [AG_113]")
"> 1 nM"
>>> observed_result("COC(=O)N[C@H](C(=O)N1CCC[C@H]1c1ncc(-c2ccc(-c3ccc(-c4ccc([C@@H]5CCCN5C(=O)N(NC(=O)OC)C(C)C)[nH]4)cc3)cc2)[nH]1)C(C)C [AG_081_A]")
"> 5 nM"

Hello, please tell me recorded CC50 at 3 days for this one: COC(=O)N[C@H](C(=O)N1CCC[C@H]1c1ncc(-c2ccc(-c3ccc(-c4cnc([C@H]5C6CCC(C6)[C@@H]5C(=O)NCCc5ccccn5)[nH]4)cc3)cc2)[nH]1)C(C)C (some centres unmarked) [AA_202]
> 1 nM

Supply reported CC50 at 3 days belonging to this compound: COC(=O)N[C@H](C(=O)N1CCC[C@H]1c1ncc(-c2ccc(-c3ccc(-c4cnc([C@@H]5C6CCC(C6)[C@H]5C(=O)NCc5cncnc5)[nH]4)cc3)cc2)[nH]1)C(C)C (some centres unmarked) [AA_201_B]
> 1 nM

For the compound COC(=O)NC(C(=O)N1CCC[C@H]1c1ncc(-c2ccc(-c3ccc(-c4cnc(C5C6CCC(C6)[C@@H]5C(=O)NCc5cccnc5)[nH]4)cc3)cc2)[nH]1)C1CCOCC1 (some centres unmarked) [AA_191] , give its measured CC50 at 3 days value.
> 1 nM

Return CC50 at 3 days (reported value) for this compound: COC(=O)N[C@H](C(=O)N1CCC[C@H]1c1ncc(-c2ccc(-c3ccc(-c4cnc([C@@H]5C6CCC(C6)[C@H]5C(=O)NCc5cccnc5)[nH]4)cc3)cc2C)[nH]1)C(C)C (some centres unmarked) [AA_211_B]
> 1 nM

Give me measured CC50 at 3 days, please, for this compound: COC(=O)N[C@H](C(=O)N1CCC[C@H]1c1ncc(-c2ccc(-c3ccc(-c4cnc(C5C6CCC(C6)[C@H]5C(=O)N[C@H](c5cccnc5)C(C)C)[nH]4)cc3)cc2)[nH]1)[C@@H](C)OC (some centres unmarked) [AA_267_B]
> 1 nM

Give a short answer stating reported CC50 at 3 days for COC(=O)N[C@H](C(=O)N1CCC[C@H]1c1ncc(-c2ccc(-c3ccc(-c4cnc(C5C6CCC(C6)[C@H]5C(=O)NCc5cccnc5O)[nH]4)cc3)cc2)[nH]1)[C@@H](C)OC (some centres unmarked) [AA_263_C] .
> 1 nM

Tell me measured CC50 at 3 days for COC(=O)NC(C(=O)N1CCC[C@H]1c1ncc(-c2ccc(-c3ccc(-c4[nH]c(C5CCCN5C(=O)[C@@H](NC(=O)OC)C(C)C)c5c4CCC5)cc3)cc2)[nH]1)C1CCOCC1 (some centres unmarked) [AG_035] please.
> 10 nM

Kindly indicate its recorded CC50 at 3 days. Item: COC(=O)N[C@H](C(=O)N1CCC[C@H]1c1ccc(-c2ccc(-c3ccc(-c4cnc([C@H](C)NC(=O)[C@@H](NC(=O)OC)[C@@H](C)OC)[nH]4)cc3)cc2)[nH]1)C(C)OC (some centres unmarked) [AG_112]
> 1 nM

Query CC50 at 3 days for COC(=O)N[C@H](C(=O)N1CCC[C@H]1c1ncc(-c2ccc(-c3ccc(-c4cnc([C@@H]5C6CCC(C6)[C@H]5C(=O)NCc5cccnc5C(F)(F)F)[nH]4)cc3)cc2)[nH]1)C(C)C (some centres unmarked) [AA_216_B]
> 1 nM

###

Assay: Cell Titer-fluor cell activity assay in HCV-1b replicon cells (CC50)
Assay type: cell-based
Metric Name: CC50 at 3 days

In the examples that follow, each entry is paired with its recorded CC50 at 3 days.
>>> observed_result("COC(=O)N[C@H](C(=O)N1CCC[C@H]1c1ncc(-c2ccc(-c3ccc(-c4cnc(C5C6CCC(C6)[C@@H]5C(=O)NNc5cccnc5)[nH]4)cc3)cc2)[nH]1)[C@@H](C)OC (stereo partly shown) [AA_258_B]")
"> 1 nM"
>>> observed_result("COC(=O)NC(C(=O)N1CCCC1c1[nH]c(-c2ccc(-c3ccc(-c4cnc([C@@H]5CCCN5C(=O)[C@@H](NC(=O)OC)C(C)C)[nH]4)cc3)cc2)c2c1CCC2)C1CCOC1 (single isomer, unassigned) [AG_025_A]")
"> 10 nM"
>>> observed_result("COC(=O)N[C@H](C(=O)N1CCC[C@H]1c1[nH]c(-c2ccc(-c3ccc(-c4cnc([C@@H]5CCCN5C(=O)[C@@H](NC(=O)OC)[C@@H](C)OC)[nH]4)cc3)cc2)c2c1CCC2)C(C)C [AG_066]")
"> 1 nM"
>>> observed_result("COC(=O)N[C@H](C(=O)N1CCC[C@H]1c1ncc(-c2ccc(-c3ccc(-c4cnc(C5C6CCC(C6)[C@H]5C(=O)NC(C)c5cccnc5)[nH]4)cc3)cc2)[nH]1)[C@@H](C)OC (stereo partly shown) [AA_251_A]")
"> 1 nM"
>>> observed_result("COC(=O)N[C@H](C(=O)N1CCCC1c1[nH]c(-c2ccc(-c3ccc(-c4cnc([C@@H]5CCCN5C(=O)[C@@H](NC(=O)OC)C(C)C)[nH]4)cc3)cc2)c2c1COC2)C(C)C (stereo partly shown) [AG_060]")
"> 1 nM"
>>> observed_result("COC(=O)N[C@H](C(=O)N1CCC[C@H]1c1ncc(-c2ccc(-c3ccc(-c4cnc(C5CCCC[C@@H]5C(=O)N(NC(=O)OC)C(C)C)[nH]4)c(F)c3)cc2)[nH]1)C(C)C (stereo partly shown) [AA_118]")
"> 10 nM"
>>> observed_result("COC(=O)N[C@H](C(=O)N1CCC[C@H]1c1cnc(-c2ccc(-c3ccc(-c4ncc(C5C6CCC(C6)[C@@H]5C(=O)N(NC(=O)OC)C(C)C)[nH]4)cc3)cc2C)[nH]1)C(C)C (stereo partly shown) [AA_169_B]")
"> 5 nM"
>>> observed_result("COC(=O)NC(C(=O)N1CCC[C@@H]1c1[nH]c(-c2ccc(-c3ccc(-c4cnc([C@@H]5CCCN5C(=O)[C@@H](NC(=O)OC)[C@@H](C)OC)[nH]4)cc3)cc2)c2c1CCC2)[C@@H](C)OC (stereo partly shown) [AG_068_B]")
"> 1 nM"
>>> observed_result("COC(=O)N[C@H](C(=O)N1CCC[C@H]1c1ncc(-c2ccc(-c3ccc(-c4cnc(C5C6CCC(C6)[C@H]5C(=O)NCc5cccnc5SC)[nH]4)cc3)cc2)[nH]1)[C@@H](C)OC (stereo partly shown) [AA_260_B]")
"> 1 nM"

Let us move to another entry and its CC50 at 3 days.
Name the recorded CC50 at 3 days of the item COC(=O)N[C@H](C(=O)N1CCC[C@H]1c1ncc(-c2ccc(-c3ccc(-c4cnc([C@@H]5[C@H]6CC[C@H](C6)[C@H]5C(=O)N[C@H](C)c5cccnc5)[nH]4)cc3)cc2)[nH]1)C(C)C [AA_204_ENDOA2_B] in your answer.
> 1 nM

These data points were gathered from patent US10160771B2.
